- condition_set: in methanol, 323.15 K
quantity_measured: solubility (mole fraction)

| structure_smiles | quantity_measured | measurement |
| --- | --- | --- |
| NC(=O)c1ccccc1 | solubility (mole fraction) | 0.186 |

---

- condition_set: in ethanol, 288.15 K
quantity_measured: solubility (mole fraction)

| structure_smiles | measurement |
| --- | --- |
| NC(=O)c1ccccc1 | 0.0478 |

---

- condition_set: in ethyl acetate, 318.15 K

| structure_smiles | solubility (mole fraction) |
| --- | --- |
| NC(=O)c1ccccc1 | 0.0618 |

---

- condition_set: in ethyl acetate, 283.15 K
quantity_measured: solubility (mole fraction)

| structure_smiles | measurement |
| --- | --- |
| NC(=O)c1ccccc1 | 0.0217 |

The reported measurements were obtained from BigSolDB 2.1.
